Tested on: MDA-MB-231
procedure-summary: Antiproliferative activity against human MDA-MB-231 cells by MTT assay
Assay type: functional, cell-based
recorded-endpoint: IC50 (nM)
Quick note: give the figure in nM, leave out the unit.

Query the reported IC50 for MDA-MB-231; item: CC(C)CN(CC(=O)N1CCN(CC(OCc2ccc3ccccc3c2)c2ccc(Cl)cc2Cl)CC1)CC(C)C (stereo unspecified)
1660
